Below is a list of entries, each paired with its recorded pIC50 value.
- testSystem: full-length proMMP9(1-707) (SEQ ID NO:1), activation by catalytic MMP3 (Homo sapiens, UniProt P14780, R574P)
- Construct: E. coli (MMP3)
- Sequence (P14780 20-707 R574P): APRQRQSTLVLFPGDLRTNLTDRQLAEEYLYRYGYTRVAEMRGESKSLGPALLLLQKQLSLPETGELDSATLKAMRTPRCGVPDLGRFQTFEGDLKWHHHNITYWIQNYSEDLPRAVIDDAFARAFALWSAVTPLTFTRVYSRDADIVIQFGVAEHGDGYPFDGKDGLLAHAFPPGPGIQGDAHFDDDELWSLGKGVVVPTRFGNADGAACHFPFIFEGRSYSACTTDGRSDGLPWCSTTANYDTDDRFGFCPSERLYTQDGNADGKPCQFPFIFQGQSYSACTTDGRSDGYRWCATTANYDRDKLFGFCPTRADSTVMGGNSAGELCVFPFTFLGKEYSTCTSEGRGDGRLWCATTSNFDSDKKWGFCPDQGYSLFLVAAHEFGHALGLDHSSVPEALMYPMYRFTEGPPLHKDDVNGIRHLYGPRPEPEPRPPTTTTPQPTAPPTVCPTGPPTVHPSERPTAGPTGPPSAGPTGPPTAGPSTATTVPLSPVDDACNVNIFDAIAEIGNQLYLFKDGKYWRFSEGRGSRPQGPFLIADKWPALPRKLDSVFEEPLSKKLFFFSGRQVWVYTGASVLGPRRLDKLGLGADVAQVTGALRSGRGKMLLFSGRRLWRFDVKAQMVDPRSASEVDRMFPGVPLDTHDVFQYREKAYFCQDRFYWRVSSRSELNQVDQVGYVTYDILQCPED
- protocolText: proMMP9/MMP3 P126 Activation Assay
For clarity, pIC50 is expressed as the negative log10 of concentration in mol/L.

>>> experimentalvalue("CCN1CCC(NC(=O)c2ccc(-c3csc(Nc4cc(S(N)(=O)=O)ccc4OC(C)C)n3)cn2)CC1 [Example 57]")
6.62

In: I have this compound here, CC(C)Oc1ccc(S(N)(=O)=O)cc1Nc1nc(-c2ccc(C(=O)NCC3CCN(C)CC3)nc2)cs1 [Example 95] , and I need its recorded pIC50.
Out: 6.51

In: I have this compound here, CC(C)Oc1ccc(C(N)=O)cc1Nc1nc(-c2cccnc2)cs1 [Example 1] , and I need its recorded pIC50.
Out: 6.44

All figures here come from patent US20120129843A1.
